Target: Neuropeptide Y receptor type 1 (Homo sapiens); note: assay procedure not described here
Sequence (P25929 whole entry): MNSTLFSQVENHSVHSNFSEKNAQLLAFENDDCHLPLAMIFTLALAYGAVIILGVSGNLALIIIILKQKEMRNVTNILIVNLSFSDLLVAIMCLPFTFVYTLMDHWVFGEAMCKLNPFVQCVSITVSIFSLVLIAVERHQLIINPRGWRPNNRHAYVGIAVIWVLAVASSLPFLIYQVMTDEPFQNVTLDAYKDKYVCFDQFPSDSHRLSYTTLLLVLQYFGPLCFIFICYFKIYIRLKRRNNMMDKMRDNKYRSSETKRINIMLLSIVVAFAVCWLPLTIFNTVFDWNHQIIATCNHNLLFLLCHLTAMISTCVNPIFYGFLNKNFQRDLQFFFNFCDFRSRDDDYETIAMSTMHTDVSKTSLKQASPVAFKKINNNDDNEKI
Reported Endpoint: AC50

Could you tell me which AC50 is on file for CCOC(=O)C(C)(C)Oc1ccc(Cl)cc1 [CLOFIBRATE] ? > 30 µM

Could you tell me which AC50 is on file for OC[C@H]1O[C@@H](n2cnc3c2NC=NC[C@H]3O)C[C@@H]1O ? > 30 µM

Could you tell me which AC50 is on file for CC(=O)c1ccc(S(=O)(=O)NC(=O)NC2CCCCC2)cc1 [ACETOHEXAMIDE] ? > 10 µM

Could you tell me which AC50 is on file for Cc1cccc(C)c1NC(=O)CC12CCCN1CCC2 [PILSICAINIDE] ? > 30 µM

Could you tell me which AC50 is on file for CN[C@@H](C)[C@@H](O)c1ccccc1 ? > 30 µM

Could you tell me which AC50 is on file for CCC(NC(C)C)C(O)c1ccc(O)c2[nH]c(=O)ccc12 (stereo not given) ? > 30 µM

Could you tell me which AC50 is on file for CCC(=O)O[C@](Cc1ccccc1)(c1ccccc1)[C@H](C)CN(C)C ? > 30 µM

Could you tell me which AC50 is on file for CNC(=C[N+](=O)[O-])NCCSCc1csc(CN(C)C)n1 ? > 10 µM

Could you tell me which AC50 is on file for C/C=C(/C(=C/C)c1ccc(O)cc1)c1ccc(O)cc1 ? > 10 µM

Could you tell me which AC50 is on file for CC(C)(C)NCC(O)c1ccccc1Cl (stereo not given) ? > 30 µM

Could you tell me which AC50 is on file for CN1Cc2c(N)cccc2C(c2ccccc2)C1 (stereo not given) ? > 30 µM

Could you tell me which AC50 is on file for Cc1ccccc1N1C(=O)c2cc(S(N)(=O)=O)c(Cl)cc2NC1C (stereo not given) ? > 10 µM

Could you tell me which AC50 is on file for CC1(C)S[C@@H]2[C@H](NC(=O)C(C(=O)O)c3ccccc3)C(=O)N2[C@H]1C(=O)O (stereo not given in full) ? > 30 µM

Could you tell me which AC50 is on file for NNC(=O)c1ccncc1 ? > 30 µM

Could you tell me which AC50 is on file for Clc1ccc(CCC(Cn2ccnc2)Sc2c(Cl)cccc2Cl)cc1 (stereo not given) ? > 30 µM

Could you tell me which AC50 is on file for Cc1nc(Nc2ncc(C(=O)Nc3c(C)cccc3Cl)s2)cc(N2CCN(CCO)CC2)n1 ? > 30 µM

Could you tell me which AC50 is on file for CCCCCCCN(CC)CCCC(O)c1ccc(NS(C)(=O)=O)cc1 (stereo not given) [IBUTILIDE] ? > 30 µM

Could you tell me which AC50 is on file for CC1=C(/C=C/C(C)=C/C=C/C(C)=C/CO)C(C)(C)CCC1 ? > 10 µM

Could you tell me which AC50 is on file for CO/N=C(\C(=O)N[C@@H]1C(=O)N2C(C(=O)O)=CCS[C@H]12)c1csc(N)n1 ? > 30 µM

Could you tell me which AC50 is on file for CN(C)Cc1nnc2n1-c1ccc(Cl)cc1C(c1ccccc1)=NC2 ? > 10 µM

* * *

Target: Mu-type opioid receptor (Homo sapiens, UniProt P35372); note: assay procedure not described here
Sequence (P35372 whole entry): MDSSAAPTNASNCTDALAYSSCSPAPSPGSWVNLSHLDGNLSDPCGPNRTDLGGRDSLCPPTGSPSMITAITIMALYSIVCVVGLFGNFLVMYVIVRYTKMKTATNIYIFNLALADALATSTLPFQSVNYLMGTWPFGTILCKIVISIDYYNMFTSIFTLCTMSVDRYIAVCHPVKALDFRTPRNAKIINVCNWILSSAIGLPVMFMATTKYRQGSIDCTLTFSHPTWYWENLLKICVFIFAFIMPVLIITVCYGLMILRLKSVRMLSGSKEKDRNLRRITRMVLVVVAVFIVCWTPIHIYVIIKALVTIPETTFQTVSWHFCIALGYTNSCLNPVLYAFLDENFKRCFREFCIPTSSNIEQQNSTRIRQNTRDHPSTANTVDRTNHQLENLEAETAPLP
Reported Endpoint: AC50

Could you tell me which AC50 is on file for O=S1(=O)CCN(CN2CCS(=O)(=O)NC2)CN1 [TAUROLIDINE] ? > 30 µM

Could you tell me which AC50 is on file for CC(=O)NCCCCCC(=O)O [ACEXAMIC ACID] ? > 30 µM

Could you tell me which AC50 is on file for O=C(O)CN(CCN(CC(=O)O)CC(=O)O)CCN(CC(=O)O)CC(=O)O [PENTETIC ACID] ? > 30 µM

Could you tell me which AC50 is on file for CC1(C)S[C@@H]2[C@H](/N=C/N3CCCCCC3)C(=O)N2[C@H]1C(=O)O [AMDINOCILLIN] ? > 30 µM

Could you tell me which AC50 is on file for CC(C)NC(=N)NC(=N)Nc1ccc(Cl)c(Cl)c1 [CHLORPROGUANIL] ? 11.2 µM

Could you tell me which AC50 is on file for CC(C(=O)O)c1cccc(Oc2ccccc2)c1 (centres undefined) [FENOPROFEN] ? > 30 µM

Could you tell me which AC50 is on file for CC(O)(CS(=O)(=O)c1ccc(F)cc1)C(=O)Nc1ccc(C#N)c(C(F)(F)F)c1 (centres undefined) [BICALUTAMIDE] ? > 30 µM

Could you tell me which AC50 is on file for O=C(O)P(=O)(O)O [FOSCARNET] ? > 30 µM

Could you tell me which AC50 is on file for Cc1cc2c(cc1S(N)(=O)=O)S(=O)(=O)CCC2 ? > 30 µM

Could you tell me which AC50 is on file for C=N[C@@H](C(=O)N[C@@H]1C(=O)N2[C@@H]1SC(C)(C)[C@@H]2C(=O)O)c1ccccc1 [METAMPICILLIN] ? > 30 µM

Could you tell me which AC50 is on file for CC(C)(C)NC(=O)N[C@H](C(=O)N1C[C@H]2[C@@H]([C@H]1C(=O)NC(CC1CCC1)C(=O)C(N)=O)C2(C)C)C(C)(C)C (some centres undefined) [BOCEPREVIR] ? > 30 µM

Could you tell me which AC50 is on file for CCCCC(CC)CN1CN(CC(CC)CCCC)CC(C)(N)C1 (centres undefined) [HEXETIDINE] ? 4.86 µM

Could you tell me which AC50 is on file for Cc1ccsc1C(=CCCN1CCC[C@@H](C(=O)O)C1)c1sccc1C [TIAGABINE] ? > 30 µM

Could you tell me which AC50 is on file for C#C[C@]1(O)C=C[C@H]2[C@@H]3CCC4=CC(=O)CC[C@@H]4[C@H]3CC[C@@]21CC [GESTODENE] ? 14.9 µM

Could you tell me which AC50 is on file for O=C(O)c1ccccc1 [BENZOIC ACID] ? > 30 µM

Could you tell me which AC50 is on file for O=C(CCC/C=C\C[C@@H]1[C@@H](CC[C@@H](O)CCc2ccccc2)[C@H](O)C[C@@H]1O)OCCCCO[N+](=O)[O-] [LATANOPROSTENE BUNOD] ? > 30 µM

Could you tell me which AC50 is on file for Nc1c(CC(=O)O)cccc1C(=O)c1ccc(Br)cc1 [BROMFENAC] ? > 30 µM

Could you tell me which AC50 is on file for CC1(CCN2CCCCC2)C(=O)CCc2ccccc21 (centres undefined) [NEPINALONE] ? > 30 µM

Could you tell me which AC50 is on file for CN1CCCN(C(c2ccccc2)c2ccc(Cl)cc2)CC1 (centres undefined) [HOMOCHLORCYCLIZINE] ? 7.4 µM

* * *

Assign AC50 to each entry below.

Give recorded AC50 with Equilibrative nucleoside transporter 1 (Homo sapiens) for the following compound: CCCC(C)(COC(N)=O)COC(N)=O [MEPROBAMATE] > 10 µM

Give recorded AC50 with Equilibrative nucleoside transporter 1 (Homo sapiens) for the following compound: Cc1cccc(C)c1NC(=O)CC12CCCN1CCC2 [PILSICAINIDE] > 30 µM

Give recorded AC50 with Equilibrative nucleoside transporter 1 (Homo sapiens) for the following compound: O=C1OC(OC(=O)c2cccnc2Nc2cccc(C(F)(F)F)c2)c2ccccc21 (centres undefined) [TALNIFLUMATE] > 30 µM

Give recorded AC50 with Equilibrative nucleoside transporter 1 (Homo sapiens) for the following compound: COc1cc2[nH]c(C)c(CCN3CCN(c4ccccc4)CC3)c2cc1OC > 30 µM

Give recorded AC50 with Equilibrative nucleoside transporter 1 (Homo sapiens) for the following compound: Cc1cc(=O)n(-c2ccccc2)n1C [ANTIPYRINE] > 30 µM

Give recorded AC50 with Equilibrative nucleoside transporter 1 (Homo sapiens) for the following compound: CC(=O)Nc1ccc(CC(=O)O)cc1 > 30 µM

Give recorded AC50 with Equilibrative nucleoside transporter 1 (Homo sapiens) for the following compound: CCCc1cc(=O)[nH]c(=S)[nH]1 > 10 µM

Give recorded AC50 with Equilibrative nucleoside transporter 1 (Homo sapiens) for the following compound: Oc1ccc(CCNCCCCCCNCCc2ccccc2)cc1O > 30 µM

Give recorded AC50 with Equilibrative nucleoside transporter 1 (Homo sapiens) for the following compound: CCOC(=O)[C@@H](N)Cc1ccc(-c2cc(O[C@H](c3ccc(Cl)cc3-n3ccc(C)n3)C(F)(F)F)nc(N)n2)cc1 > 30 µM

Give recorded AC50 with Equilibrative nucleoside transporter 1 (Homo sapiens) for the following compound: CC(O)(CS(=O)(=O)c1ccc(F)cc1)C(=O)Nc1ccc(C#N)c(C(F)(F)F)c1 (centres undefined) [BICALUTAMIDE] > 30 µM

Give recorded AC50 with Equilibrative nucleoside transporter 1 (Homo sapiens) for the following compound: CCCN1CCCC[C@H]1C(=O)Nc1c(C)cccc1C > 30 µM

Give recorded AC50 with Equilibrative nucleoside transporter 1 (Homo sapiens) for the following compound: CCCc1nc2c(C)cc(-c3nc4ccccc4n3C)cc2n1Cc1ccc(-c2ccccc2C(=O)O)cc1 > 30 µM

Give recorded AC50 with Equilibrative nucleoside transporter 1 (Homo sapiens) for the following compound: CC/C=C\C/C=C\C/C=C\C/C=C\C/C=C\CCCC(=O)OCC > 30 µM

Give recorded AC50 with Equilibrative nucleoside transporter 1 (Homo sapiens) for the following compound: CN(Cc1cnc2nc(N)nc(N)c2n1)c1ccc(C(=O)N[C@@H](CCC(=O)O)C(=O)O)cc1 [METHOTREXATE] > 30 µM

Give recorded AC50 with Equilibrative nucleoside transporter 1 (Homo sapiens) for the following compound: Cn1cc(C(=O)[C@@H]2CCc3nc[nH]c3C2)c2ccccc21 > 30 µM

Give recorded AC50 with Equilibrative nucleoside transporter 1 (Homo sapiens) for the following compound: CCC(=O)O[C@](Cc1ccccc1)(c1ccccc1)[C@H](C)CN(C)C > 30 µM

Give recorded AC50 with Equilibrative nucleoside transporter 1 (Homo sapiens) for the following compound: C[C@]12CCC(=O)C[C@@H]1CC[C@@H]1[C@@H]2CC[C@]2(C)[C@@H](O)CC[C@@H]12 > 30 µM

Give recorded AC50 with Equilibrative nucleoside transporter 1 (Homo sapiens) for the following compound: CC(C(=O)O)c1ccc2oc(-c3ccc(Cl)cc3)nc2c1 (centres undefined) > 30 µM

Give recorded AC50 with Equilibrative nucleoside transporter 1 (Homo sapiens) for the following compound: C[C@@H]1C[C@H]2[C@@H]3CCC4=CC(=O)C=C[C@]4(C)[C@@]3(F)[C@@H](O)C[C@]2(C)[C@@]1(O)C(=O)CO > 30 µM

Give recorded AC50 with Equilibrative nucleoside transporter 1 (Homo sapiens) for the following compound: CC(CN(C)C)C(C)(O)Cc1ccc(Cl)cc1 (centres undefined) > 30 µM

Give recorded AC50 with Equilibrative nucleoside transporter 1 (Homo sapiens) for the following compound: Cc1nnc(SCC2=C(C(=O)O)N3C(=O)[C@@H](NC(=O)Cn4cnnn4)[C@H]3SC2)s1 > 300 µM

Give recorded AC50 with Equilibrative nucleoside transporter 1 (Homo sapiens) for the following compound: CCCNC(=O)NS(=O)(=O)c1ccc(Cl)cc1 [CHLORPROPAMIDE] > 30 µM

Give recorded AC50 with Equilibrative nucleoside transporter 1 (Homo sapiens) for the following compound: CC(C)N(CCCCOCC(=O)O)c1cnc(-c2ccccc2)c(-c2ccccc2)n1 > 30 µM

Give recorded AC50 with Equilibrative nucleoside transporter 1 (Homo sapiens) for the following compound: CN(C)Cc1nnc2n1-c1ccc(Cl)cc1C(c1ccccc1)=NC2 > 10 µM

Give recorded AC50 with Equilibrative nucleoside transporter 1 (Homo sapiens) for the following compound: CCN1CC(CCN2CCOCC2)C(c2ccccc2)(c2ccccc2)C1=O (centres undefined) > 30 µM

Give recorded AC50 with Equilibrative nucleoside transporter 1 (Homo sapiens) for the following compound: C[C@@H]1C[C@H]2[C@@H]3C[C@H](F)C4=CC(=O)C=C[C@]4(C)[C@@]3(F)[C@@H](O)C[C@]2(C)[C@@]1(OC(=O)c1ccco1)C(=O)SCF [FLUTICASONE FUROATE] > 10 µM

Give recorded AC50 with Equilibrative nucleoside transporter 1 (Homo sapiens) for the following compound: CC[C@H](C)C(=O)O[C@H]1C[C@@H](C)C=C2C=C[C@H](C)[C@H](CC[C@@H]3C[C@@H](O)CC(=O)O3)[C@H]21 > 30 µM

Give recorded AC50 with Equilibrative nucleoside transporter 1 (Homo sapiens) for the following compound: CCOC(=O)c1c(CSc2ccccc2)n(C)c2cc(Br)c(O)c(CN(C)C)c12 > 30 µM

Give recorded AC50 with Equilibrative nucleoside transporter 1 (Homo sapiens) for the following compound: NS(=O)(=O)c1cc2c(cc1Cl)N=C(CSCc1ccccc1)NS2(=O)=O [BENZTHIAZIDE] > 10 µM

Give recorded AC50 with Equilibrative nucleoside transporter 1 (Homo sapiens) for the following compound: CCOC(=O)C1=C(C)NC(C)=C(C(=O)OCC)C1c1ccccc1/C=C/C(=O)OC(C)(C)C > 30 µM

Give recorded AC50 with Equilibrative nucleoside transporter 1 (Homo sapiens) for the following compound: Cc1onc(-c2c(F)cccc2Cl)c1C(=O)N[C@@H]1C(=O)N2[C@@H]1SC(C)(C)[C@@H]2C(=O)O > 30 µM

Give recorded AC50 with Equilibrative nucleoside transporter 1 (Homo sapiens) for the following compound: CN[C@@H](C)[C@@H](O)c1ccccc1 > 30 µM

Give recorded AC50 with Equilibrative nucleoside transporter 1 (Homo sapiens) for the following compound: CCC(=O)O[C@]1(C(=O)CCl)[C@@H](C)C[C@H]2[C@@H]3CCC4=CC(=O)C=C[C@]4(C)[C@@]3(F)[C@@H](O)C[C@@]21C [CLOBETASOL PROPIONATE] > 30 µM

Give recorded AC50 with Equilibrative nucleoside transporter 1 (Homo sapiens) for the following compound: CN[C@]1(c2ccccc2Cl)CCCCC1=O > 30 µM
